target: 5-Lipoxygenase (crude enzyme preparation from rat basophilic leukemia cells, RBL-1) (Rattus norvegicus, UniProt P12527); construct: crude enzyme preparation from rat basophilic leukemia cells (RBL-1); endogenous in cells; host or cells: rat basophilic leukemia cells (RBL-1); test: 5-Lipoxygenase screen (5-LO), 5-HETE by RIA; assay type: biochemical; details: Table II
Sequence (P12527 whole entry): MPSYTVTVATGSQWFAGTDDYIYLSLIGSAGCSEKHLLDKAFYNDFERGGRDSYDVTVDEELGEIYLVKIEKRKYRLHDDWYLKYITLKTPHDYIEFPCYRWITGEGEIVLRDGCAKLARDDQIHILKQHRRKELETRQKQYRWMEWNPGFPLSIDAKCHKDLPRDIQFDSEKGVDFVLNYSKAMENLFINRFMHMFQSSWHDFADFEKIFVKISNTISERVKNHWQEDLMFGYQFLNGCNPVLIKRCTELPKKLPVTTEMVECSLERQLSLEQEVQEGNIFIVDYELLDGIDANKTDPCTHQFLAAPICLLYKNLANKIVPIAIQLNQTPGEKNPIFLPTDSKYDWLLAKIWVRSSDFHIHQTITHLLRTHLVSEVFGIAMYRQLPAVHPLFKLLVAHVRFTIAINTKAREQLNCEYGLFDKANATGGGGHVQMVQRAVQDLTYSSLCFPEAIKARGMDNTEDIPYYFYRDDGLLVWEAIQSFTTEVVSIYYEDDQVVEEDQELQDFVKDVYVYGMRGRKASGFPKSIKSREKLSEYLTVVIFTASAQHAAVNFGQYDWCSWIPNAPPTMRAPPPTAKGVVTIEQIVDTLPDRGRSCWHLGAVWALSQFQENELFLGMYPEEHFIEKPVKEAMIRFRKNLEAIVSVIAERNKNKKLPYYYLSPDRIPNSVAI
result_type: pIC50
Value format note: pIC50 is -log10 of concentration (mol/L); just state the number.

**Query** What does the data say about its pIC50? Entry: O=C1OC(CCC#Cc2cc(Cc3ccc(F)cc3)cs2)C(O)=C1O (stereo not shown)
**Result** 6.80

====

inhibition at 300 µM reference
biological target: Cyclooxygenase-2 (prostaglandin H synthetase-2) from sheep placenta (Ovis aries, UniProt P79208); construct: cyclooxygenase-2 from sheep placenta; from tissue; host or cells: sheep placenta; assay: Cyclooxygenase-2 screen (COX-2); type: biochemical; details: read-out: COX-2 percent inhibition
Sequence (P79208 17-603): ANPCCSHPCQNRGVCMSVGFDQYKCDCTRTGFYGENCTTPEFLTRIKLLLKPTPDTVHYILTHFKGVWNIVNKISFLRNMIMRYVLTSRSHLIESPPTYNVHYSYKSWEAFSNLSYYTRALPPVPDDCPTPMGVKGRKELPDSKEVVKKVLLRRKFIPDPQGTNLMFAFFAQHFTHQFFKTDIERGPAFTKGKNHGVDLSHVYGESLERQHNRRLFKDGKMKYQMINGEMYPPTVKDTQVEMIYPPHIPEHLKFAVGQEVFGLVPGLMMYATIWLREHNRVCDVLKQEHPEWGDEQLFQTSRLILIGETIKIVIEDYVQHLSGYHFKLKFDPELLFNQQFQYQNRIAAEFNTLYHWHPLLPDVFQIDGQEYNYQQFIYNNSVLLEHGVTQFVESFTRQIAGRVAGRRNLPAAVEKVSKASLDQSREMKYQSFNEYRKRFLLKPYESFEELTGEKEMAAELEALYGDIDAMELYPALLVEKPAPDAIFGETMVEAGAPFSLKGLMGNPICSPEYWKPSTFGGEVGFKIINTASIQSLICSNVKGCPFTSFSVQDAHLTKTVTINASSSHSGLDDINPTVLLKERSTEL
Use % as the unit, but write only the number.

Below, each entry is followed by its recorded inhibition at 300 µM result.
INSERT INTO measurements (molecule, readout_unit, numeric_result) VALUES
  ('C[C@@]1(c2ccc(-c3ccccc3)cc2)OC(=O)C(O)=C1O [Example 11]', '%', 10),
  ('CCCC1(c2ccc(-c3ccccc3)cc2)OC(=O)C(O)=C1O (stereo not shown) [Example 5]', '%', 22);

**Query** For O=C1OC(CCC#Cc2ccc3ccccc3c2)C(O)=C1O (stereo not shown) [Example 32] , what is its reported inhibition at 300 µM?
**Result** 23

**Query** Please look up its inhibition at 300 µM: CCCC1(c2ccc(CC(C)C)cc2)OC(=O)C(O)=C1O (stereo not shown) [Example 9]
**Result** 19

**Query** Fill in the blank: the reported inhibition at 300 µM of CC1(c2ccccc2)OC(=O)C(O)=C1O (stereo not shown) [Example 1] is ____.
**Result** 3

**Query** # inhibition at 300 µM lookup, item CC1(c2ccc(Cl)cc2)OC(=O)C(O)=C1O (stereo not shown) [Example 4]
**Result** 24

**Query** Entry O=C1OC(c2ccccc2)(c2ccc(-c3ccccc3)cc2)C(O)=C1O (stereo not shown) [Example 7] has what inhibition at 300 µM?
**Result** 34

**Query** Consider the molecule O=C1OC(CCSc2nc(-c3ccccc3)c(-c3ccccc3)o2)C(O)=C1O (stereo not shown) [Example 24] and give its measured inhibition at 300 µM.
**Result** 68

**Query** Requested field: inhibition at 300 µM. Item: O=C1OC(CCOc2ccc3ccccc3n2)C(O)=C1O (stereo not shown) [Example 23]
**Result** -2

**Query** What does the record list as inhibition at 300 µM for O=C1OC(CCSc2cccc3ccccc23)C(O)=C1O (stereo not shown) [Example 25] ?
**Result** 19

====

system: Nuclear Factor-kappa B (NF-κB); assay: NF-κB lacZ (κB-Z) reporter assay in transfected Jurkat cells stimulated with A23187 and PMA; type: cell-based, human; conditions: Homo sapiens; 10 μM; κB-Z Jurkat cells, A23187 and PMA (Table III); read-out: NF-κB percent inhibition
Records here are stratified by inhibition at 10 µM; strata: interval 1 = under 30%, interval 2 = from 30% up to 60%, interval 3 = 60% and over

Take a look at these entries with their results.
INSERT INTO results (compound, category) VALUES
  ('CC1(c2ccc(-c3ccccc3)cc2)OC(=O)C(O)=C1O (racemic)', 'interval 3'),
  ('C[C@]1(c2ccc(-c3ccccc3)cc2)OC(=O)C(O)=C1O', 'interval 2'),
  ('CC(C)Cc1ccc([C@@]2(C)OC(=O)C(O)=C2O)cc1', 'interval 2'),
  ('O=C1OC(c2ccccc2)(c2ccccc2)C(O)=C1O', 'interval 2'),
  ('C[C@@]1(c2ccc(-c3ccccc3)cc2)OC(=O)C(O)=C1O', 'interval 3');

**Query** Into which category would you place CCCC1(c2ccc(-c3ccccc3)cc2)OC(=O)C(O)=C1O (stereo not drawn) ?
**Result** interval 3

**Query** Which category fits this record: CC(C)Cc1ccc(C2(c3ccccc3)OC(=O)C(O)=C2O)cc1 (stereo not drawn)
**Result** interval 1

**Query** Into which bin does this compound go? O=C1OC(CCSc2nc(-c3ccccc3)c(-c3ccccc3)o2)C(O)=C1O (stereo not drawn)
**Result** interval 2

**Query** # classify by inhibition at 10 µM band: O=C1OC(c2ccccc2)(c2ccc(-c3ccccc3)cc2)C(O)=C1O (stereo not drawn)
**Result** interval 1

**Query** Please indicate the class for CCCC1(c2ccc(CC(C)C)cc2)OC(=O)C(O)=C1O (stereo not drawn) based on its inhibition at 10 µM.
**Result** interval 1

====

molecular target: 5-Lipoxygenase (crude enzyme preparation from rat basophilic leukemia cells, RBL-1) (Rattus norvegicus, UniProt P12527); construct: crude enzyme preparation from rat basophilic leukemia cells (RBL-1); endogenous in cells; host or cells: rat basophilic leukemia cells (RBL-1); experiment: 5-Lipoxygenase screen (5-LO), 5-HETE by RIA; format: biochemical; settings: 30 μM; read-out: 5-LO percent inhibition
result_type: inhibition at 30 µM

Examples from the recorded data:
INSERT INTO results (molecule, result_type, result) VALUES
  ('CC(C)Cc1ccc([C@]2(C)OC(=O)C(O)=C2O)cc1', 'inhibition at 30 µM', '96%'),
  ('CC1(c2ccccc2)OC(=O)C(O)=C1O (stereo not shown)', 'inhibition at 30 µM', '58%'),
  ('O=C1OC(c2ccccc2)(c2ccc(-c3ccccc3)cc2)C(O)=C1O (stereo not shown)', 'inhibition at 30 µM', '102%');

**Query** Which inhibition at 30 µM reading was recorded for the molecule C[C@@]1(c2ccc(-c3ccccc3)cc2)OC(=O)C(O)=C1O ?
**Result** 101%

**Query** May I ask what inhibition at 30 µM has been recorded for O=C1OC(CCN2C(=O)c3cccc4cccc(c34)C2=O)C(O)=C1O (stereo not shown) ?
**Result** 86%

**Query** What value of measured inhibition at 30 µM is listed for CCCCCSCc1ccccc1C#CCCC1OC(=O)C(O)=C1O (stereo not shown) ?
**Result** 92%

**Query** Look up inhibition at 30 µM for this molecule: CCCSCc1ccccc1C#CCCC1OC(=O)C(O)=C1O (stereo not shown)
**Result** 84%

====

biological target: 5-Lipoxygenase (crude enzyme preparation from rat basophilic leukemia cells, RBL-1) (Rattus norvegicus); construct: crude enzyme preparation from rat basophilic leukemia cells (RBL-1); endogenous in cells; host or cells: rat basophilic leukemia cells (RBL-1); test: 5-Lipoxygenase screen (5-LO), 5-HETE by RIA; assay type: biochemical; conditions: read-out: Percent inhibition of 5-LO; test conc. 1 μM (Table II)
Listed compounds paired with reported inhibition at 1 µM
State just the number; it will be interpreted in %.

Solved cases below.
INSERT INTO results (compound, numeric_result) VALUES
  ('O=C1OC(c2ccccc2)(c2ccccc2)C(O)=C1O', 15),
  ('CC(C)Cc1ccc(C2(c3ccccc3)OC(=O)C(O)=C2O)cc1 (centres unmarked)', 64),
  ('CCCC1(c2ccc(-c3ccccc3)cc2)OC(=O)C(O)=C1O (centres unmarked)', 68);

**Query** Which measured inhibition at 1 µM value corresponds to CC(C)Cc1ccc([C@]2(C)OC(=O)C(O)=C2O)cc1 ?
**Result** 50

**Query** # lookup: inhibition at 1 µM of CC(C)Cc1ccc([C@@]2(C)OC(=O)C(O)=C2O)cc1
**Result** 59

====

Molecular target: Cyclooxygenase-2 (prostaglandin H synthetase-2) from sheep placenta (Ovis aries, UniProt P79208)
Construct: cyclooxygenase-2 from sheep placenta; from tissue; host or cells: sheep placenta
Assay: Cyclooxygenase-2 screen (COX-2)
Format: biochemical
Conditions: read-out: COX-2 percent inhibition
Description: The compounds of the invention were screened for their anti-inflammatory activity using a series of in vitro tests the details of which are given below. The activity of various compounds against 5-lipoxygenase, cycloxygenase-1, cycloxygenase-2 and lipid peroxidase was evaluated. Results of the screening procedures are included in TABLE I, and the activity against 5-lipoxygenase at a test concentration of 1 μM in Table II. […]
result_type: inhibition at 300 µM (%)
Use % as the unit, but write only the number.

Solved cases (4 shown):
INSERT INTO results (compound, readout_unit, numeric_result) VALUES
  ('Cc1ccccc1C#CCCC1OC(=O)C(O)=C1O (centres unmarked) [Example 28]', '%', 15),
  ('O=C1OC(CCOc2ccc(Oc3ccccc3)cc2)C(O)=C1O (centres unmarked) [Example 15]', '%', -4),
  ('CC1(c2ccc(-c3ccccc3)cc2)OC(=O)C(O)=C1O (racemic) [Example 2]', '%', 22),
  ('O=C1OC(c2ccccc2)(c2ccccc2)C(O)=C1O [Example 8]', '%', 17);

**Query** inhibition at 300 µM for CC(C)Cc1ccc(C2(c3ccccc3)OC(=O)C(O)=C2O)cc1 (centres unmarked) [Example 10] ?
**Result** 34
